species on record: Rattus norvegicus; test: Residual insulin release from rat pancreatic islets at a concentration of 50 uM; assay type: functional
Response field class: enum, chosen by comparing Residual insulin secretion against low: < 60%; moderate: ≥ 60% and < 90%; high: ≥ 90%

Below, 3 compounds whose answers are already recorded.
CCC(C)NC1=NS(=O)(=O)c2cnccc2N1C (configuration not stated) | moderate
CC1=NS(=O)(=O)c2cnccc2N1C(C)C | moderate
CCC(C)NC1=NS(=O)(=O)c2cc(Cl)ccc2N1 (configuration not stated) | low

Q) Textbook exercise: identify the category of the compound given here, CC(C)C(C)NC1=NS(=O)(=O)c2cnccc2N1C (configuration not stated) , according to its measured value.
A) high

Q) Textbook exercise: identify the category of the compound given here, CCCCN(C)C1=NS(=O)(=O)c2cnccc2N1 , according to its measured value.
A) moderate

Q) Textbook exercise: identify the category of the compound given here, CC(NC1=NS(=O)(=O)c2cc(Cl)ccc2N1)C(C)(C)C (configuration not stated) , according to its measured value.
A) low

Q) Textbook exercise: identify the category of the compound given here, O=S1(=O)N=C(NN2CCOCC2)Nc2ccncc21 , according to its measured value.
A) high

====

species: Rattus norvegicus; experiment: Residual insulin release from rat pancreatic islets at a concentration of 50 uM; format: functional
The threshold is inclusive: Residual insulin secretion of exactly 80% counts as condition met; values below receive condition not met.

Below, 4 compounds whose answers are already recorded.
O=S1(=O)N=C(C2CCCC2)Nc2ccncc21 | condition met
CC1=NS(=O)(=O)c2cnccc2N1 | condition met
CC1=NS(=O)(=O)c2cnccc2N1N1C2CCCC1CC2 | condition not met
CC(C)C(C)NC1=NS(=O)(=O)c2cc(Cl)ccc2N1 (stereo not given) | condition not met

Now turn to the next compound.
Q) Does the reported Residual insulin secretion for CC1=NS(=O)(=O)c2cc(Cl)ccc2N1C fall at or above the 80% mark?
A) condition met

====

Kindly supply the reported Residual insulin secretion values for the records listed here.
organism: Rattus norvegicus; experiment: Residual insulin release from rat pancreatic islets at a concentration of 50 uM; type: functional
Give bare numbers, in %.

Take each entry in turn and give its Residual insulin secretion.
1. CC1=NS(=O)(=O)c2cnccc2N1C1CCCCCCC1
2. CN1CCN(C2=NS(=O)(=O)c3cnccc3N2)CC1
3. CC(C)C(C)NC1=NS(=O)(=O)c2cnccc2N1 (stereo not given)
4. CCCC1=NS(=O)(=O)c2cnccc2N1
5. CC(C)NC1=NS(=O)(=O)c2cnccc2N1C
6. CC1=NS(=O)(=O)c2cnccc2N1C
7. CC(NC1=NS(=O)(=O)c2cnccc2N1)C(C)(C)C (stereo not given)

A)
[90.6, 90.6, 8.6, 85.1, 79.4, 109, 10.3]

Take each entry in turn and give its Residual insulin secretion.
1. O=S1(=O)NC(C2CCCC2)=Nc2ccc(Cl)cc21
2. CC1=NS(=O)(=O)c2cnccc2N1C1CCCCC1
3. CCC(C)NC1=NS(=O)(=O)c2cnccc2N1 (stereo not given)
4. O=S1(=O)N=C(C(F)(F)F)Nc2ccncc21

A)
1. 14.1
2. 87.9
3. 9.4
4. 90.4

Take each entry in turn and give its Residual insulin secretion.
1. CC(C)NC1=NS(=O)(=O)c2cnccc2N1
2. CCNC1=NS(=O)(=O)c2cnccc2N1
3. O=S1(=O)N=C(NC2CCCC2)Nc2ccncc21
4. CC(C)(C)C1=NS(=O)(=O)c2cnccc2N1
5. CC(NC1=NS(=O)(=O)c2cnccc2N1C)C(C)(C)C (stereo not given)
6. O=S1(=O)N=CNc2ccncc21

A)
1. 42.6
2. 59.2
3. 31.6
4. 81.1
5. 88.5
6. 99.5

====

species on record: Rattus norvegicus; test: Residual insulin release from rat pancreatic islets at a concentration of 50 uM; type: functional
MEASURE_NAME: Residual insulin secretion (%)
Numbers only, in %.

Sample answers from the record:
CCC1=NS(=O)(=O)c2cnccc2N1 | 90.2
CC(C)C1=NS(=O)(=O)c2cnccc2N1 | 79.7

// next item, Residual insulin secretion requested
Residual insulin secretion recorded for this molecule, CC1=NS(=O)(=O)c2cnccc2N1N1CCOCC1 , is 93.5

Hello, the source for this data is ChEMBL document CHEMBL1129496, in case you need it.
